B1: library; a variant is named by its letters at N, in order (parent)
chain: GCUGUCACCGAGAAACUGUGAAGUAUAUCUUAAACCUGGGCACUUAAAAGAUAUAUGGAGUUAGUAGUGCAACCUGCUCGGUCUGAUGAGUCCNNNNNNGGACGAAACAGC

Variants of: B1
Assay: normalized RNA/DNA level with ligand (relative to sTRSVctl = 100) (log10 (% of sTRSVctl)); HEK293T; ligand: cyclic di-GMP (c-di-GMP-II aptamer); ligand concentration (+) RNA-Seq: 1 mM; higher = less ribozyme self-cleavage, higher mRNA level
Details: reporter: mCherry (pCS4076), ligand present: yes
Measurement Name: normalized RNA/DNA level with ligand (log10)
Format: numeric value only, no unit, no commentary.

Reference set, count: 5
- GGCGAC: 1.88
- UCCCUG: 1.89
- UGCCCU: 1.89
- AAUGGC: 1.81
- UUUGGC: 1.9

Reported normalized RNA/DNA level with ligand (log10), variant UUACUG : ____
1.84

Reported normalized RNA/DNA level with ligand (log10), variant GAUGCC : ____
1.84

Reported normalized RNA/DNA level with ligand (log10), variant UCGAGG : ____
1.87

Reported normalized RNA/DNA level with ligand (log10), variant AUUAGU : ____
1.83

Reported normalized RNA/DNA level with ligand (log10), variant UGCGGU : ____
1.8

Reported normalized RNA/DNA level with ligand (log10), variant CGUUGA : ____
1.71

Recorded values, source the supplement of paper PMC6757056.
